target or system: T1, recombinant CD3D&E protein (human CD3-his tag) (human, UniProt P04234 22-105; P07766 23-126, limits assumed)
T1 construct: Analyte in Biacore; also called CD3D&E-His; CD3d&ε-His
T1 sequence (P04234 22-105 limits assumed, chain 1 of 2): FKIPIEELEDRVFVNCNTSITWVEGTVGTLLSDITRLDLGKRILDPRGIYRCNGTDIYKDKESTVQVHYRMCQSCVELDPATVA
T1 sequence (P07766 23-126 limits assumed, chain 2 of 2): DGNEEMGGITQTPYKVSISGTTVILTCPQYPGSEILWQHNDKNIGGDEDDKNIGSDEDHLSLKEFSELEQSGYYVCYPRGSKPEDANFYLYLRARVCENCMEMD
method: SPR Biacore, Ab captured on Protein A;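 note: humanized antibodies on a Protein A chip, human CD3-his analyte flowed over in serial dilutions for 3 min, dissociation tracked 120–360 s on a Biacore T200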
reported property: kon
Quick note: number first, unit second.

# query: kon of entry Hu153A6B1-6 (antibody, V domains shown, humanized mAb) VH: EVQLQESGPGLVKPSETLSLTCTVSGFSLTSYNIHWVRQPPGKGLEWMGRIRYNGDTSYNSALKSRLTISRDTSKNQVSLKLSSVTAADTAVYYCTRGPYGGSREPLFDYWGQGTMVTVSS VL: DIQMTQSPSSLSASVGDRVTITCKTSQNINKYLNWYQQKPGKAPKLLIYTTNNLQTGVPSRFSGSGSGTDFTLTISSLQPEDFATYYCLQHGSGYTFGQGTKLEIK
85800 M⁻¹ s⁻¹

# query: kon of entry Hu192A7B9-16 (antibody, V domains shown, humanized mAb) VH: EVQLQESGPGLVKPSETLSLTCTVSGGSISSYNVHWVRQPPGKGLEWMGRMRYNGDTSYNSALKSRLTISRDTSKNQFSLKLSSVTAADTAVYYCTRGPRGGYYSALFDYWGQGTMVTVSS VL: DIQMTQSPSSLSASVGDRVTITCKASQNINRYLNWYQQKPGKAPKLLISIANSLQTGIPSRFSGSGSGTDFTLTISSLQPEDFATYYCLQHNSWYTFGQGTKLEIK
97600 M⁻¹ s⁻¹

# query: kon of entry Hu192A7B9-17 (antibody, V domains shown, humanized mAb) VH: EVQLQESGPGLVKPSETLSLTCTVSGFSISSYNVHWVRQPPGKGLEWMGRMRYNGDTSYNSALKSRLTISRDTSKNQVSLKLSSVTAADTAVYYCTRGPRGGYYSALFDYWGQGTMVTVSS VL: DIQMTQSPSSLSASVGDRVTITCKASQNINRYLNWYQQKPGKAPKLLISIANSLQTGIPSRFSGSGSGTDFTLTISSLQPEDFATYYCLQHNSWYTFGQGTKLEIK
82200 M⁻¹ s⁻¹

# query: kon of entry Hu155A9B1-8 (antibody, V domains shown, humanized mAb; also called 155z8) VH: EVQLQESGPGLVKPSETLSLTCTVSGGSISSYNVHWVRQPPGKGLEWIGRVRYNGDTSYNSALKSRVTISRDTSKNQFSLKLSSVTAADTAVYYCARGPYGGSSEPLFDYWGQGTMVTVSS VL: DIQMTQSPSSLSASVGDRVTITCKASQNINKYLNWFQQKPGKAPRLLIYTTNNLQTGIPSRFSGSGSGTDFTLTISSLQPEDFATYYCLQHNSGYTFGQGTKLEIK
226000 M⁻¹ s⁻¹

# query: kon of entry Hu192A7B9-10 (antibody, V domains shown, humanized mAb) VH: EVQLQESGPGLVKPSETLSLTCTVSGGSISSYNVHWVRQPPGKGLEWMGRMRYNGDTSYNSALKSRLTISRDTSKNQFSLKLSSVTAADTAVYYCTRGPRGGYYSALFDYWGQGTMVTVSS VL: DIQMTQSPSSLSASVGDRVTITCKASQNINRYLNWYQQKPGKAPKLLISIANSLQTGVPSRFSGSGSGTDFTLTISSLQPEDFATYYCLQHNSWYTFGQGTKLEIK
118000 M⁻¹ s⁻¹

# query: kon of entry Hu155A9B1-13 (antibody, V domains shown, humanized mAb) VH: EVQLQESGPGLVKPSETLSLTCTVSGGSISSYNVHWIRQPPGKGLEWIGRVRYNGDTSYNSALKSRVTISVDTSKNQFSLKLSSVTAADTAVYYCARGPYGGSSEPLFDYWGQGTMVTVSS VL: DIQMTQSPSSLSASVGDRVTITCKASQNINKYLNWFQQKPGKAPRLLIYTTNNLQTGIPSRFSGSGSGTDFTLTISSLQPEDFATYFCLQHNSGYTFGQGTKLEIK
280000 M⁻¹ s⁻¹

# query: kon of entry Hu192A7B9-7 (antibody, V domains shown, humanized mAb) VH: EVQLQESGPGLVKPSETLSLTCTVSGGSISSYNVHWIRQPPGKGLEWIGRMRYNGDTSYNSALKSRVTISVDTSKNQFSLKLSSVTAADTAVYYCARGPRGGYYSALFDYWGQGTMVTVSS VL: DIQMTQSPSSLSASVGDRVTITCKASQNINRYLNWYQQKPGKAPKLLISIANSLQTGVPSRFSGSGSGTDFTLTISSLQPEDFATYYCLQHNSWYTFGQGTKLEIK
190000 M⁻¹ s⁻¹

# query: kon of entry Hu153A6B1-8 (antibody, V domains shown, humanized mAb) VH: EVQLQESGPGLVKPSETLSLTCTVSGGSISSYNIHWVRQPPGKGLEWIGRIRYNGDTSYNSALKSRVTISRDTSKNQFSLKLSSVTAADTAVYYCARGPYGGSREPLFDYWGQGTMVTVSS VL: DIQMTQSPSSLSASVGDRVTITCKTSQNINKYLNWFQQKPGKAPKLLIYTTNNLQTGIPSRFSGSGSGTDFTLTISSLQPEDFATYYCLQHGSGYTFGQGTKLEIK
808000 M⁻¹ s⁻¹

# query: kon of entry Hu153A6B1-15 (antibody, V domains shown, humanized mAb) VH: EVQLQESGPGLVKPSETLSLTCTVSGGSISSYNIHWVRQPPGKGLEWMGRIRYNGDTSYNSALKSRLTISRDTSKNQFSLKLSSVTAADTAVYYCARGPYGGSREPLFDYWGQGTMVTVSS VL: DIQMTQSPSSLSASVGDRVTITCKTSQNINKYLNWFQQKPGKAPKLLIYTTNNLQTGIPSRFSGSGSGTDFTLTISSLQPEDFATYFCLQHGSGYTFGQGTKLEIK
198000 M⁻¹ s⁻¹

# query: kon of entry Hu155A9B1-10 (antibody, V domains shown, humanized mAb) VH: EVQLQESGPGLVKPSETLSLTCTVSGGSISSYNVHWVRQPPGKGLEWMGRVRYNGDTSYNSALKSRLTISRDTSKNQFSLKLSSVTAADTAVYYCTRGPYGGSSEPLFDYWGQGTMVTVSS VL: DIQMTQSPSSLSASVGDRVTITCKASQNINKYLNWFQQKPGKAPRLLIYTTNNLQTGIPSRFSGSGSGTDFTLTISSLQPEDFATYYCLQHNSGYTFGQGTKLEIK
187000 M⁻¹ s⁻¹
